experiment: Monkey pharmacokinetics, SC and IV administration; assay type: in vivo, cynomolgus monkeys; conditions: male, cynomolgus monkey, plasma; animal 9697, M; 30 mg/kg SC single dose
Numbered stars: 1 amine (or outer) side, 2 acyl side, 3 side chain; on linkers, the order of the positions; unused ones are H or OH. Bridge positions count the residues as written; N and C are the ends. Square brackets hold non-standard residues; d marks the D form. Peptide text beside a SMILES is read from it. * marks the point of attachment. ξ: configuration not given here. Orn(4R-OH,5R-OCH2CH2NMe3+) = C[N+](C)(C)CCO[C@@H](N[*:3])[C@H](O)C[C@H](N[*:1])C(=O)[*:2]; pTerphenylCO(4''-OnC5H11) = CCCCCOc1ccc(-c2ccc(-c3ccc(C(=O)*)cc3)cc2)cc1; hTyr(3S-OH,4S-OH) = N[C@H](C(=O)O)[C@H](O)[C@@H](O)c1ccc(O)cc1; X1 = C[C@H]1CN([*:1])C(C(=O)[*:2])C1O; Hyp = O=C(O)[C@@H]1C[C@@H](O)CN1; ξT = CC(O)C(N)C(=O)O

- molecule: "CCCCCOc1ccc(-c2ccc(-c3ccc(C(=O)N[C@H]4C[C@@H](O)[C@@H](OCC[N+](C)(C)C)NC(=O)C5C(O)[C@@H](C)CN5C(=O)[C@H]([C@@H](C)O)NC(=O)[C@H]([C@H](O)[C@@H](O)c5ccc(O)cc5)NC(=O)[C@@H]5C[C@@H](O)CN5C(=O)C(C(C)O)NC4=O)cc3)cc2)cc1 (stereo partly drawn) [CD101] ({pTerphenylCO(4''-OnC5H11)}-[Orn(4R-OH,5R-OCH2CH2NMe3+)][ξT][Hyp][hTyr(3S-OH,4S-OH)]T[X1]; lactam 1-C)"
  Tmax [h]: 96

Where do these numbers come from? They come from patent US20240076347A1.
